Molecular target: hPAP (Homo sapiens)
Sequence (P15309 33-386): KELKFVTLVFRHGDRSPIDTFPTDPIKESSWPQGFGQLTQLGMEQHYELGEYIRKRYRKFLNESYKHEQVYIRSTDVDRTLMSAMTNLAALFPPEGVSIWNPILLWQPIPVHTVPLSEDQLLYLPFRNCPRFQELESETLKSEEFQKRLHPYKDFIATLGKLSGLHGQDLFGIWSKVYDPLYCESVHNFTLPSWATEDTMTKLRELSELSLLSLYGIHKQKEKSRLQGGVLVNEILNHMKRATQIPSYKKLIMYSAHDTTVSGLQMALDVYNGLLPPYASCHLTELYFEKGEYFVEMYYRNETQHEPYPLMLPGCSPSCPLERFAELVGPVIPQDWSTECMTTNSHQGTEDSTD
Assay: Fluorogenic
Assay type: biochemical
Conditions: read-out: IC50 human secretory PAP, fluorogenic substrate
MEASUREMENT NAME: IC50

[
  {
    "SMILES STR": "Nc1nc2c(nc(Sc3ccc(Cl)cc3)n2[C@@H]2O[C@@H]3COP(=O)(O)O[C@H]3[C@H]2O)c(=O)[nH]1",
    "RESULT": "31.1 µM"
  }
]

Data provenance: paper PMC3608840
